tested on: Saccharomyces cerevisiae; experiment: protein stability index of tFT-peptide fusion (C-terminal peptide) (PSI (0-1 scale)); higher = more stable (slower turnover); conditions: genetic background: wild type; temperature: 30 C;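 further: PSI is a weighted mean of sequencing reads over stability bins, variants kept only with over 10 reads, mCherry proximal and sfGFP distal, peptide attached via GGGS linker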
# label = met if protein stability index >= 0.7 else not met

See these solved cases before continuing.
WDQLPVNMVYQC    not met
PISLYFVWFFFF    not met
RSLRLPPRTPLP    not met
HPAALTPVPALH    not met
VLPLRPGRKLSG    not met

Please tell me: is the sequence SLPSPIPPPSLL at or over 0.7 in terms of protein stability index?
met

Reported protein stability index reaches at least 0.7 for WCECGVWVGLWG ?
met

Check the entry PPPAPLPLPAST : does protein stability index equal or exceed 0.7?
not met

Reported protein stability index reaches at least 0.7 for SENNLKHEKVIE ?
met

----------
tested on: Saccharomyces cerevisiae; test: protein stability index of tFT-peptide fusion (C-terminal peptide) (PSI (0-1 scale)); higher = more stable (slower turnover); details: genetic background: wild type; temperature: 30 C
Mark Met for reported protein stability index of 0.7 or greater; mark Not met for anything smaller.

Field: example entries. Status: answers known.
NRGKDEIMKRDK    Not met
DLAWAIGRLTKG    Not met
WRVFRPSLRLFA    Not met
VVSDGRSYGLLK    Met

We next turn to a different sequence, shown below.
Say whether GWCRVFLNFLMW shows protein stability index of 0.7 or more.
Not met

----------
system: Saccharomyces cerevisiae; experiment: protein stability index of tFT-peptide fusion (C-terminal peptide) (PSI (0-1 scale)); higher = more stable (slower turnover); conditions: genetic background: cdc53-1; temperature: 37 C
EXPERIMENTAL READOUT: protein stability index
Lab note: jot down the number only; don't add units.

ALRLVAFFWVPG    0.536
RWGLCFVHVTMF    0.0963

Value of measured protein stability index for the entry LARRASCFWVRC : 0.721

Reported protein stability index ( LFCVCFYGRIFL ) = 0.556

Reported protein stability index of SCLFMLFPLVSV : 0.505

// protein stability index lookup, sequence = LCWLVHFFLWVS , result: 0.431

Given item LFVFVLAGFCCV , the value recorded as its protein stability index is 0.436

// protein stability index lookup, sequence = LVWSGLIVVVGG , result: 0.204

The reported value for FLSRLVGFYFVV in terms of protein stability index is 0.69

protein stability index in this record for PISLYFVWFFFF : 0.363

Lab book: protein stability index of LFIFYCFFFLVR noted as 0.379

CLAWWLGRVWVC yielded protein stability index of 0.225

# protein stability index (sequence: FFFVFLGLRSVF ) is 0.358

Measured protein stability index of SVFFRPVLICCA : 0.0313

protein stability index in this record for PCVLAIYVWIRS : 0.169

protein stability index reading for ALLYIVVGWSLS : 0.185

Record VCLCVIICSMSV , field protein stability index: 0.041

Lab book: protein stability index of RGLLLKILIASG noted as 0.463

# protein stability index of VFVGGVSVLILF = 0.638

----------
system: Saccharomyces cerevisiae; experiment: protein stability index of tFT-peptide fusion (C-terminal peptide) (PSI (0-1 scale)); higher = more stable (slower turnover); conditions: genetic background: wild type; temperature: 30 C
# binarize protein stability index: threshold 0.3 inclusive, high side yes, low side no

FCGLLGVCLVMG    no
SLCPFLCILCFG    no
RLPFPVVLFLLF    no

Dear colleague, could you confirm whether VFFLAFYFYRCF has protein stability index at or above 0.3?
no

Quick check, protein stability index >= 0.3? SFFVCVRVFGCC
no
